Molecular target: Recombinant IKKβ (Homo sapiens, UniProt O14920)
Construct: purchased Millipore, Dundee, UK
Sequence (O14920 1-756): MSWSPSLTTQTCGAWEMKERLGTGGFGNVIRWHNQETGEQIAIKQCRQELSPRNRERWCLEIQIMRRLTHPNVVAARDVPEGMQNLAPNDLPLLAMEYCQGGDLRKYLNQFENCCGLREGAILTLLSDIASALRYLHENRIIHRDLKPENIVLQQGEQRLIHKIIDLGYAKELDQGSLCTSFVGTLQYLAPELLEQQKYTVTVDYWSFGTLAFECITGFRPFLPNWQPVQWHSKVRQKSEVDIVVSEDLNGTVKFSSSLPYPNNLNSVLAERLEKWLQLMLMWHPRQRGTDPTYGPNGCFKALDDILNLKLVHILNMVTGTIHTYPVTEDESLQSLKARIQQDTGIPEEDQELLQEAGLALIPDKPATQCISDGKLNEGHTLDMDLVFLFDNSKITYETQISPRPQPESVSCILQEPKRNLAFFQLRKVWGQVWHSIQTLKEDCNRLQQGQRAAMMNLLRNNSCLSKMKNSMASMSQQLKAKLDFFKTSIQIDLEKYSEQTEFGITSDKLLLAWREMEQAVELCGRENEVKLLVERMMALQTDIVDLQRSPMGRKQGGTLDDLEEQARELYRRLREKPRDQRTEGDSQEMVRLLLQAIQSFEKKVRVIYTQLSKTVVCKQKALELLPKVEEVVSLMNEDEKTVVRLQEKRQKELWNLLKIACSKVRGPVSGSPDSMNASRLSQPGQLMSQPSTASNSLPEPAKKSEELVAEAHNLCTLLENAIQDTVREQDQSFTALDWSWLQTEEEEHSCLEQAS
Assay: DELFIA IKKβ kinase assay (apparent Ki, Cheng-Prusoff)
Assay type: biochemical
Conditions: non-italicised figure: DELFIA assay
Items are presented alongside their recorded pKi.
pKi is defined as minus the log10 of a concentration measured in mol/L.

> print(dat)
                               recordsmiles                               assaytarget  measuredproperty  quantitativereadout
1        Nc1n[nH]c2ccc(-c3ccnc(NCCO)c3)cc12  Recombinant IKKβ (Homo sapiens, UniProt O14920)               pKi                 6.20
2  Nc1n[nH]c2ccc(-c3ccnc4[nH]c(C(=O)O)cc34)cc12  Recombinant IKKβ (Homo sapiens, UniProt O14920)               pKi                 6.47
3  Nc1n[nH]c2ccc(-c3ccnc(NC(=O)NCc4cccnc4)c3)cc12  Recombinant IKKβ (Homo sapiens, UniProt O14920)               pKi                 6.08
4  Nc1cc(-c2cc(-c3ccoc3)c3[nH]nc(N)c3c2)ccn1  Recombinant IKKβ (Homo sapiens, UniProt O14920)               pKi                 6.29

So what's the measured pKi for this one? CC(C)(C)C#Cc1cc(-c2ccnc(N)c2F)cc2c(N)n[nH]c12
6.66

So what's the measured pKi for this one? CC(C)(O)C#Cc1c(-c2ccc3[nH]nc(N)c3c2)ccnc1N
6.53

So what's the measured pKi for this one? Nc1n[nH]c2ccc(-c3ccnc(NC(=O)C4CC4)c3)cc12
6.80

So what's the measured pKi for this one? COCCNc1cc(-c2cc(C#CC(C)(C)C)c3[nH]nc(N)c3c2)ccn1
5.95

So what's the measured pKi for this one? Nc1n[nH]c2ccc(-c3ccnc(NC(=O)Nc4ccccc4)c3)cc12
6.53

So what's the measured pKi for this one? Nc1n[nH]c2ccc(-c3ccnc(NC(=O)NCCO)c3)cc12
6.12

So what's the measured pKi for this one? COC(=O)Nc1cc(-c2cc(C#CCN3CCOCC3)c3[nH]nc(N)c3c2)ccn1
6.14

So what's the measured pKi for this one? Nc1n[nH]c2ccc(-c3ccnc(NC(=O)Nc4cccc(OCc5ccccc5F)c4)c3)cc12
5.61

So what's the measured pKi for this one? CC(C)(C)C#Cc1cc(-c2ccnc(NCCO)c2)cc2c(N)n[nH]c12
5.87

So what's the measured pKi for this one? Nc1n[nH]c2c(-c3ccccc3)cc(-c3ccnc4[nH]ccc34)cc12
5.90

So what's the measured pKi for this one? Nc1nccc(-c2ccc3[nH]nc(N)c3c2)c1C#CC1(O)CCCCCC1
5.51

So what's the measured pKi for this one? Nc1nccc(-c2ccc3[nH]nc(N)c3c2)c1C#CC1CCCCC1
6.47

So what's the measured pKi for this one? Nc1cc(-c2cc(-c3cccs3)c3[nH]nc(N)c3c2)ccn1
6.65
